- tested_system: GPCR HM74A (niacin receptor) (Homo sapiens, UniProt Q8TDS4)
- Sequence (Q8TDS4 whole entry): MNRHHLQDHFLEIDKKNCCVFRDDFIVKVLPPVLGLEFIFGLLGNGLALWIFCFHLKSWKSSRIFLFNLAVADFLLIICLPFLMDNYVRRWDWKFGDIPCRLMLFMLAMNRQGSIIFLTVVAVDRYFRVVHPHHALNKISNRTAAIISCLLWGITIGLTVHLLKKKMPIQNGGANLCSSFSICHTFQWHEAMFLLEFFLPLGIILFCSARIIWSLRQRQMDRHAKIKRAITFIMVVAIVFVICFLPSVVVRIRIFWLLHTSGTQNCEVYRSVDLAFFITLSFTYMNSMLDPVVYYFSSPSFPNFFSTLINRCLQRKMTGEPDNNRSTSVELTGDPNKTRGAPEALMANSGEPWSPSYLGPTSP
- assay_remarks: FLIPR in vitro functional assay, intracellular Ca2+ in recombinant HEK293 cells expressing HM74A and Gα6qi4myr
- experimental_context: 100% = 1 μM niacin
pEC50: −log10 of the molar value.
measurement_label: pEC50

Use the examples below as a reference point.
> print(dat)
                                  molecule  measurement.label  observed
1           O=C(O)c1cc(=O)c(OCc2ccccc2)co1              pEC50      4.54
2        O=C(O)c1cc(=O)c(OCc2cccc(F)c2)co1              pEC50      4.20
3     CCCc1oc(C(=O)O)cc(=O)c1OCc1ccc(C)cc1              pEC50      5.36
4    N#Cc1ccc(C(=O)Oc2coc(C(=O)O)cc2=O)cc1              pEC50      6.51
5  C/C=C/c1oc(C(=O)O)cc(=O)c1OCc1ccc(C)cc1              pEC50      7.00
6      CC(C)c1ccc(COc2coc(C(=O)O)cc2=O)cc1              pEC50      5.83

[P] Cc1ccc(C(=O)Oc2coc(C(=O)O)cc2=O)cc1
[Q] N#Cc1ccc(COc2coc(C(=O)O)cc2=O)cc1
[R] O=C(O)c1cc(=O)c(OCc2ccc(F)cc2)co1
Would you mind ranking these molecules by ascending pEC50? Write the labels, ordered according to the request.
R, Q, P
(R: 4.31, Q: 4.83, P: 5.92)
